details: buffer; pH 7.4; 200.0 µM
Reported solubility kinetic values for the following compounds.
Metric: solubility kinetic (µg/mL)

INSERT INTO results (compound, unit_string, censoring_sign, measured_number) VALUES
  ('CCCN1CCC[C@H](c2cccc(O)c2)C1.Cl', 'µg/mL', '>', 38.4),
  ('O=C1N=C(N2CCOCC2)S/C1=C\c1cccs1', 'µg/mL', '>', 42.1),
  ('O=C1/C(=C/c2ccncc2)N2CCC1CC2', 'µg/mL', '>', 32.1),
  ('CCC(CC)C(=O)NCc1cccnc1', 'µg/mL', '>', 30.9),
  ('Cc1cc(NS(=O)(=O)c2ccc(NC(=O)c3ccccc3F)cc2)no1', 'µg/mL', '>', 56.3),
  ('CCCN1CCC(NC2CCC(O)CC2)CC1 (centres undefined)', 'µg/mL', '=', 27.1),
  ('CCn1c(CNC(=O)c2ccccc2F)cc2ccccc21', 'µg/mL', '=', 2),
  ('CCC(=O)Nc1ccc(CCC(=O)N2CCCC2)cc1', 'µg/mL', '=', 40),
  ('O=C(O)CSCC(=O)Nc1ccccn1', 'µg/mL', '>', 33.9),
  ('c1ccc2c(c1)Cc1cc3ccccc3nc1-2', 'µg/mL', '=', 4.3),
  ('CN(C)c1ccc(Nc2cc(Cl)ncn2)cc1', 'µg/mL', '=', 9),
  ('O=[N+]([O-])c1ccc(Nc2ccccc2O)c2nonc12', 'µg/mL', '>', 40.8),
  ('CNC(=O)NC(=O)COc1c(F)c(F)cc(F)c1F', 'µg/mL', '=', 38.2),
  ('O=S(=O)(NCc1csc(-c2cccs2)n1)c1cccs1', 'µg/mL', '=', 49),
  ('CC(=O)Nc1cccc(NC(=S)Nc2cccc3ccccc23)c1', 'µg/mL', '>', 50.3),
  ('CC(C)(C)c1ccc(C(=O)OCC(=O)NCc2ccco2)cc1', 'µg/mL', '=', 39),
  ('CCCC(C(=O)OCCN(CC)CC)(c1ccccc1)c1ccccc1.Cl', 'µg/mL', '=', 47.4),
  ('Cc1csc(NC(=O)CCCc2cccs2)n1', 'µg/mL', '=', 28.2),
  ('COc1ccc(CCNC(=S)N(C)C)cc1OC', 'µg/mL', '>', 40.3);
